Values compiled from paper PMC2364081.

# Target System: RARβ (Homo sapiens, UniProt P10826)
# Sequence (P10826 1-455): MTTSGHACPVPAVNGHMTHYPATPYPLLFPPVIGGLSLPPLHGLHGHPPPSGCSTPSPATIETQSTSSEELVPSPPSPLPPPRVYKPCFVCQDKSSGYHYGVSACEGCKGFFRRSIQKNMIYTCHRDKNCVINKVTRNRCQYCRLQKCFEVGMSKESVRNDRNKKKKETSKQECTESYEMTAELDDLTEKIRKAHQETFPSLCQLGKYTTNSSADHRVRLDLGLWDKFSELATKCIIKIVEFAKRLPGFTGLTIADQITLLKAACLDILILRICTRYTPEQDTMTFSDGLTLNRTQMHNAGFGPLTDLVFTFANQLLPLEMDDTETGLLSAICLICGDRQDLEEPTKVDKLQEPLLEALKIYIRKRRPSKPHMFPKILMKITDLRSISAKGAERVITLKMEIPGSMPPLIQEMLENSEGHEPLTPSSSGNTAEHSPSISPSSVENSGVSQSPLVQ
Measured Endpoint: Kd (nM)
Kindly answer with a numeric value in nM, unit omitted.

1. Cc1ccc(C2=CCC(C)(C)c3ccc(N=Nc4ccc(C(=O)O)cc4F)cc32)cc1 [AGN194431] | 6
2. CCc1ccc(C2=CC(C)(C)Sc3ccc(C#Cc4ccc(C(=O)O)cc4)cc32)cc1 [AGN194310] | 2

Let's switch to this compound now.
For the compound shown here, Cc1ccc(C2=CC(C)(C)Oc3c(Br)cc(C(=O)Nc4ccc(C(=O)O)c(F)c4)cc32)cc1 [AGN194301] , give the reported Kd.
320

----------
# Target System: UniProt:P13631
# Sequence (P13631 whole entry): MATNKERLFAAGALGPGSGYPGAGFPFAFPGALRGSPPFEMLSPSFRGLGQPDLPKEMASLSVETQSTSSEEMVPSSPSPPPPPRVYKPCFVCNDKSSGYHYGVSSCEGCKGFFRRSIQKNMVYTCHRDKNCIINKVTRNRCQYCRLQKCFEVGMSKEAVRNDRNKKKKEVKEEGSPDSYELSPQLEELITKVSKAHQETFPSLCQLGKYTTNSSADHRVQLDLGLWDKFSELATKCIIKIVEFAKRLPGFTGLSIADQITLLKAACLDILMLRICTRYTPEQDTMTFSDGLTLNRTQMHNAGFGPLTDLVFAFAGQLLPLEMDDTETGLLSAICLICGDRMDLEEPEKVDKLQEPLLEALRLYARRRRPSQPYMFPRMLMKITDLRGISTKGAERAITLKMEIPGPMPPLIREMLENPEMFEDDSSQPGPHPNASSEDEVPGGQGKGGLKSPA
# Assay Name: Binding to baculovirus-expressed RARγ
# Set-up: made in house
# Condition Summary: baculovirus-expressed receptor
Measured Endpoint: Kd (µM)
Kindly answer with a numeric value in µM, unit omitted.

The examples below pair each entry with its known result.
1. Cc1ccc(C2=CC(C)(C)Oc3c(Br)cc(C(=O)Nc4ccc(C(=O)O)c(F)c4)cc32)cc1 [AGN194301] | 7.25
2. Cc1ccc(C2=CCC(C)(C)c3ccc(N=Nc4ccc(C(=O)O)cc4F)cc32)cc1 [AGN194431] | 0.07

Under UniProt:P13631: Kd value of CCc1ccc(C2=CC(C)(C)Sc3ccc(C#Cc4ccc(C(=O)O)cc4)cc32)cc1 [AGN194310] ?
0.005

----------
# Target System: RARβ (Homo sapiens, UniProt P10826)
# Assay Name: Transactivation by RARβ in doubly transfected CV-1 cells (MTV-TREp-LUC reporter)
Measured Endpoint: pEC50
// returns pEC50 (minus log10 of molar concentration), number only

For the compound shown here, CC1(C)CCSc2ccc(C#Cc3ccc(C(=O)O)cn3)cc21 , give the reported pEC50.
7.74
